- Tested on: MDA-MB-453
- test: normalised viability (% of control), CellTiter-Blue; higher = more viable cells (about 100 = DMSO control)
- experimental_context: incubation time: 72 h
measurement_kind: normalised viability (%)

>>> print(df.to_string())
                                   molecule  u  reported_measurement
0  Cc1ccc(C(=O)Nc2ccc(CN3CCN(C)CC3)c(C(F)(F)F)c2)cc1C#Cc1cnc2cccnn12 [Ponatinib] (300 nM)  %                  54.3
1  CC(C)Cn1cnc2c(N)nc3ccccc3c21 [Imiquimod] (3000 nM)  %                  95.7
2  C=C(c1ccc(C(=O)O)cc1)c1cc2c(cc1C)C(C)(C)CCC2(C)C [Bexarotene] (3000 nM)  %                  84.2
3  CCN(CCCOc1ccc2c(Nc3cc(CC(=O)Nc4cccc(F)c4)[nH]n3)ncnc2c1)CCOP(=O)(O)O [Barasertib] (300 nM)  %                    61

Cited source: the supplement of paper PMC4862054
